Tested on: 855422-203-R-J1-PDC complex spheroids, viability
measurement description: Anticancer human tumor 855422-203-R-J1-PDC patient-derived bladder carcinoma cell line growth inhibition [CLK]
details: curve of first compound; second compound 0.316 µM
pIC50: −log10 of the molar value.
observation type: pIC50

Tested system 855422-203-R-J1-PDC complex spheroids, viability; pIC50 recorded for NC(=O)C(=Cn1cnc(-c2cc(C(F)(F)F)cc(C(F)(F)F)c2)n1)c1cncnc1 + CNC(=O)c1ccc(Nc2nc(OC3CCCC3)c3c(-c4ccc5nc(C)oc5c4)c[nH]c3n2)c(OC)c1 was > 8.02

Hey, 855422-203-R-J1-PDC complex spheroids, viability data for CCc1c2c(nc3ccc(O)cc13)-c1cc3c(c(=O)n1C2)COC(=O)[C@]3(O)CC + CN1CCN(c2cc(C(=O)Nc3cc4cc(-c5cnn(C)c5)ccc4cn3)ccn2)CC1 : pIC50 came out at > 8.50

The compound COc1ccc([C@@H](O)c2cc(-c3ncnc4cc(N5CCOCC5)ccc34)c(F)cc2Cl)nn1 + CN1CCN(c2cc(C(=O)Nc3cc4cc(-c5cnn(C)c5)ccc4cn3)ccn2)CC1 , tested on 855422-203-R-J1-PDC complex spheroids, viability, showed pIC50 of > 7.50

Measured pIC50 (855422-203-R-J1-PDC complex spheroids, viability), entry Nc1ccccc1NC(=O)c1ccc(CNC(=O)OCc2cccnc2)cc1 + CN1CCN(c2cc(C(=O)Nc3cc4cc(-c5cnn(C)c5)ccc4cn3)ccn2)CC1 : > 7.50

Entry CC1(C)CCC(CN2CCN(c3ccc(C(=O)NS(=O)(=O)c4ccc(NCC5CCOCC5)c([N+](=O)[O-])c4)c(Oc4cnc5[nH]ccc5c4)c3)CC2)=C(c2ccc(Cl)cc2)C1 + CN1CCN(c2cc(C(=O)Nc3cc4cc(-c5cnn(C)c5)ccc4cn3)ccn2)CC1 : pIC50 on 855422-203-R-J1-PDC complex spheroids, viability = > 7.50

###

Please provide measured viability, T/C for the entries that follow.
Tested on: 855422-203-R-J1-PDC complex spheroids, viability
measurement description: Anticancer human tumor 855422-203-R-J1-PDC cell line growth inhibition [CLK];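 note: spheroids exposed to drugs for seven days before readout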;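 for viability, T/C: 100% = DMSO vehicle control wells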
details: second compound 1 µM; first compound 0.1 µM; stronger effect = lower value
Reply with just the number (in %).

So for Cn1ncnc1[C@H]1c2n[nH]c(=O)c3cc(F)cc(c23)N[C@@H]1c1ccc(F)cc1 + CN1CCN(c2cc(C(=O)Nc3cc4cc(-c5cnn(C)c5)ccc4cn3)ccn2)CC1 , the logged viability, T/C turned out to be 0.15

So for Nc1ccccc1NC(=O)c1ccc(CNC(=O)OCc2cccnc2)cc1 + CN1CCN(c2cc(C(=O)Nc3cc4cc(-c5cnn(C)c5)ccc4cn3)ccn2)CC1 , the logged viability, T/C turned out to be 0.19

Input COc1cccc2c1C(=O)c1c(O)c3c(c(O)c1C2=O)CC(O)(C(=O)CO)CC3OC1CC(N)C(O)C(C)O1 (stereo not given) + CN1CCN(c2cc(C(=O)Nc3cc4cc(-c5cnn(C)c5)ccc4cn3)ccn2)CC1 . Output viability, T/C: 0.29

Reported viability, T/C for Cn1ncnc1[C@H]1c2n[nH]c(=O)c3cc(F)cc(c23)N[C@@H]1c1ccc(F)cc1 + CNC(=O)c1ccc(Nc2nc(OC3CCCC3)c3c(-c4ccc5nc(C)oc5c4)c[nH]c3n2)c(OC)c1 was 18.2

Sample C#Cc1c(F)ccc2cc(O)cc(-c3ncc4c(N5CC6CCC(C5)N6)nc(OCC56CCCN5CC(F)C6)nc4c3F)c12 (stereo not given) + CNC(=O)c1ccc(Nc2nc(OC3CCCC3)c3c(-c4ccc5nc(C)oc5c4)c[nH]c3n2)c(OC)c1 ; viability, T/C observed: 21.5
